Target protein (sequence): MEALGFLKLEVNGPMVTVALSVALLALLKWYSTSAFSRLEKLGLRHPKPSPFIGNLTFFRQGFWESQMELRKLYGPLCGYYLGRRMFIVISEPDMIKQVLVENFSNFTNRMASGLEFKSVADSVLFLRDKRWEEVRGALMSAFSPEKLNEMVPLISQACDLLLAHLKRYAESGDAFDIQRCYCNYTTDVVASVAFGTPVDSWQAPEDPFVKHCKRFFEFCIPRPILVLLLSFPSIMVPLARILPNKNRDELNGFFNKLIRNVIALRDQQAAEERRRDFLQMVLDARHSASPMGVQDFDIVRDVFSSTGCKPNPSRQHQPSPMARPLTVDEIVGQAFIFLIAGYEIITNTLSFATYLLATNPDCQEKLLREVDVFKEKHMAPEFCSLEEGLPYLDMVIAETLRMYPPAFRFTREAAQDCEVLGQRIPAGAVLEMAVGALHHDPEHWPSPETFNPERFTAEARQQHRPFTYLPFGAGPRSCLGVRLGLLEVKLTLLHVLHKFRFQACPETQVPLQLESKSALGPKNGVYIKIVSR
RESULT TYPE: IC50 (nM)
Expressed in nM, but write only the number.

Task item: # lookup: IC50 of `O=C(O)CC/C=C\C[C@@H]1CO[C@H](c2cccc(OCCCCCCOc3ccc(/C(=C\CCCCC(=O)O)c4cccnc4)cc3)c2)O[C@@H]1c1ccccc1O`
Reply: 70

Task item: # lookup: IC50 of `CC(C)(c1ccc(/C(=C\CCCCC(=O)O)c2cccnc2)cc1)[C@H]1OC[C@@H](C/C=C\CCC(=O)O)[C@@H](c2ccccc2O)O1`
Reply: 30

Task item: # lookup: IC50 of `O=C(O)CC/C=C\C[C@@H]1CO[C@H](c2ccc(OCCOc3ccc(/C(=C\CCCCC(=O)O)c4cccnc4)cc3)cc2)O[C@@H]1c1ccccc1O`
Reply: 50
